Biological target: D(1A) dopamine receptor (Homo sapiens)
Sequence (P21728 whole entry): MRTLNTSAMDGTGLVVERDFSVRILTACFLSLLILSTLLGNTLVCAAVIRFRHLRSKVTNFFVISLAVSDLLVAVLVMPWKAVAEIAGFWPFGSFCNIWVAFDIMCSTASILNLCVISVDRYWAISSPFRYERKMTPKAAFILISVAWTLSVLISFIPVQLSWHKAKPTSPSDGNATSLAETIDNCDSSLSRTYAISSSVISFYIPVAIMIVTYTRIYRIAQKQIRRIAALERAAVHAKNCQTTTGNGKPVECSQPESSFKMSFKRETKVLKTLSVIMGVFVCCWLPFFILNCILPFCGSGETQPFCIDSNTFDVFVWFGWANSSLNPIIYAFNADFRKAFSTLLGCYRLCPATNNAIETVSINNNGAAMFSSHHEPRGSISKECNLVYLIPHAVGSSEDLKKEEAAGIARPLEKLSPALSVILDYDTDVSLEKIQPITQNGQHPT
Test: Positive allosteric modulation of human D1 receptor expressed in HEK293 assessed as cAMP production incubated for 60 mins by HTRF assay
pEC50: −log10 of the molar value.
measureName: pEC50

smilesrecord=C[C@H]1c2cccc(-c3cnn(CCO)c3)c2C[C@H](CO)N1C(=O)Cc1c(Cl)cccc1Cl measurename=pEC50 endpointvalue=7.74
